TARGET_SYSTEM: UniProtKB O14684
Sequence (O14684 whole entry): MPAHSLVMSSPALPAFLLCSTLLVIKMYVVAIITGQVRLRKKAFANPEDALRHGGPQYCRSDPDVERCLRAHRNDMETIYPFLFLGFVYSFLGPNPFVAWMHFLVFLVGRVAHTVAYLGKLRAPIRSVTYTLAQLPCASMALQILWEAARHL
PROCEDURE_DETAILS: A549 cell-based assay (PGE2 formation, IL-1β stimulated, 50% human serum)
TEST_SETTINGS: A549 cells, IL-1β 5 ng/ml, read-out: mPGES-1 inhibitory effect in the cell assay, IC50
pIC50: −log10 of the molar value.
PARAMETER_MEASURED: pIC50

INSERT INTO measurements (molecule, parameter_measured, obs_value) VALUES
  ('Cn1c(Nc2c(Cl)ccc(CNC(=O)C(N)C(F)(F)F)c2Cl)nc2cc(C(=O)Nc3ccc(F)c(Cl)c3)c(OCC(F)F)cc21 (stereo not drawn)', 'pIC50', 7.82);

a. COC(=O)c1ccc(NC(=O)c2cc3nc(Nc4c(Cl)ccc(CNC(=O)C(C)(C)C)c4Cl)n(C)c3cc2OCC(F)F)s1
b. Cn1c(Nc2c(Cl)ccc(CNC(=O)C3(C)CC3)c2Cl)nc2cc(C(=O)NCC(F)(F)F)c(OCC(F)F)cc21
Lowest pIC50? choose a or b Identify your pick by its label.
b
